# System: Saccharomyces cerevisiae
# testName: transcriptional activation domain activity (GFP:mCherry ratio, weighted mean of sorted bins, harmonized to initial dataset scale) (arbitrary fluorescence ratio units); higher = stronger transcriptional activation
# testSettings: beta-estradiol 1 µM; induction time 4 h
transcriptional activation domain activity below 50000 gives class 0; transcriptional activation domain activity at or above it gives class 1.

Solved entries (count: 3):
KEVASADTKPADAPAGEAKAPKKEKKEKEKKPAEAAEGGKKKEKAAGGGGKAA = class 0
MCLCLLLLLLLHVFIFFMSFYPSGWPPSYSIIFFLWSFILVVFYPCKFFFLVV = class 1
VFLHHFRRAIFPLCNLVCSSWNVITFSHPWMIFAIIMFLHWSWILGLQKGMLI = class 1

Is the recorded value of transcriptional activation domain activity equal to or greater than 50000 for this sequence? `MIERCLMMGPSLGLYVFDLFLLEVGYLAFYAHFNLFSMFAYVFPFIPLVGIRC` class 0

Moving on to the next sequence: `HLLSPHIAPELIELLVVRTFLQPHPWPVPSCATTGFLRTLAWISRWAWRHSPL` class 0

Now try `MLLNMLMLWILYIFSVTTFSTFRYFIILPVPSLMDYSEFFRACMLGAFVLSPV` . class 1

// same read-out, input: `MWGILYSLQYHQNFPFVACFLSDLFEKIIHHHFFYFSLSSFSLFLIFHFWFFF` class 1

Next entry: `YNIRAKGFNIFNITISVGLIFNQYVNPIALAVLTWKYYVVYCAWLLCEVLFLY` class 1

Another sequence to look at: `HRRHHVLLPHPAHTLLKGCFEPAFHNSIWHILSCHMYIPCTPILLLLIIQHVL` class 0

---

# Test system: Saccharomyces cerevisiae
# testName: transcriptional activation domain activity (GFP:mCherry ratio, weighted mean of sorted bins, harmonized to initial dataset scale) (arbitrary fluorescence ratio units); higher = stronger transcriptional activation
# testSettings: beta-estradiol 1 µM; induction time 4 h
quantityName: transcriptional activation domain activity
Please give the numeric answer without any surrounding text.

YKKLQWHYFLFDLCYYVNILNFVFLWIFPHSPSLFVACYCLSLGSVASAIITW = 27700
QAHPPVQVRKTSHKAAEQKRRDSLKTTFDDLRGTASAAAPPVGRHGRACAPGA = 35300
VVNVLLSVFNGYDTGKSGIRCNPLPNSFIPLIMTAMLLSMLTFLLVTTIACYV = 38300
PNGLMDPVLSTTNVSATSSNDNSANNSISSPEYTFGQFSMDSPHRTDATNTPI = 23000
HLKHTFVMDVAMSIGYLMAPVLVSACAFIWYVKVDNHELSASVVFVSITLFDM = 61800
MILMIFTYLLLTIPVVVGLIVASLLHFNFIHLNVLYACSLTSLQLINPCMVLF = 50000
PKQYCVRPNAARLEPGERVEVQVLLQPMKEDPPEDTKCRDKFLIQSAAIPPQH = 39200
MAAPPFLWTLFFFLFSILLLLSHTYFFLLLLACFFRFWFFYCSFYFSFDFLSS = 37900
SSEYEIGRPSEEEVTMTRMLDKVLRRSDAVDKESLCILAGQRVWHLRLTLHCL = 45500
RLYAVRLVIVILVMELTLHFLYVVAISKSKAWDGASPLELSMVGYFNLVIIWM = 42900

Next sequence, transcriptional activation domain activity to be filled in.
Dear colleague, I am looking for the recorded transcriptional activation domain activity of the following sequence: `VRVVQLSLSLFIARFVTALVLPFIAIVTKWLVIGRYRPGIFPLWGTYYLRWWF` 45000

---

# System: Saccharomyces cerevisiae
# testName: transcriptional activation domain activity (GFP:mCherry ratio, weighted mean of sorted bins, harmonized to initial dataset scale) (arbitrary fluorescence ratio units); higher = stronger transcriptional activation
# testSettings: beta-estradiol 1 µM; induction time 4 h
Rule: transcriptional activation domain activity under 30000 gives class 0, otherwise class 1.

Answered examples (4):
PKDGAKEEKKSSKSRGEEKRSRSDRKEREREEKSSKGSASDKAEQPPKATASS = class 0
MHRATNYYFSFSALLYLVFIFLRCSLALGLFFCFMFLSFEFFCFLMVLCLFCI = class 1
MGDCIKAHVFLLTFFYLYIHTHIFLFLFFIFLPFLLFSASSIYILFSFLFFPA = class 1
EGDRKGRGRGRGRDDRGPRDRNREREDRDEKNDKKRAREEGNDEKPAKNADSK = class 1

# next sequence below
Is it the case that `ILVGGFGLELGMNGVYPWYIFLFLACLASDFEFTMLFELTVGFFFPPLLFMCL` has transcriptional activation domain activity reaching or exceeding 30000? class 1

---

# Tested on: Saccharomyces cerevisiae
# testName: transcriptional activation domain activity (GFP:mCherry ratio, weighted mean of sorted bins, harmonized to initial dataset scale) (arbitrary fluorescence ratio units); higher = stronger transcriptional activation
# testSettings: beta-estradiol 1 µM; induction time 4 h
quantityName: transcriptional activation domain activity
A bare number is all that is needed in reply.

Example entries and their recorded answers appear below.
MLICLFVVFSPFFLFIFLYLSAYRLSFFNFSCFLLFLYLFLIHLLYFPLYFIF = 61200
PVNFIFVKLAKVFPLDYLFMVLLIIYFFLVTLTGIITLGVRFFWITLFRIRRG = 19400
FFTPPSTTYLRFFLSFYPLSPFIFFFIFLSFSLPLSSFLSFSISFFFTFPFPF = 36100

Which measured transcriptional activation domain activity value corresponds to `MTMRKSFEYSFSREIYFLFFFLFFSFLFFLSFLSFSLSLFFFFPLHPGLFRLV` ? 54400

---

# System: Saccharomyces cerevisiae
# testName: transcriptional activation domain activity (GFP:mCherry ratio, weighted mean of sorted bins, harmonized to initial dataset scale) (arbitrary fluorescence ratio units); higher = stronger transcriptional activation
# testSettings: beta-estradiol 1 µM; induction time 4 h
quantityName: transcriptional activation domain activity
The response must contain the number and no unit.

The following sequences have reported results that may help.
VREEPTAFFFVVFGLVYETLVTSVPDSDAAAHRTSIVALKALKCLVQEKYCGK = 46200
MGSQLPHLQLSDTDGAGPMKRRRPALACVECRRRKVKCDRKKPCSPCTRIKSL = 69900
RLNFLLFCLSLFLSLYFFPFCLLFFLFSLSSFLFCLPSFLSLLSSFFFFFVSL = 57200
TNTGFGASNTPAGGAGGGGGIFGSGTSGFGGGTSAFGAANNNNAFGAKPAFGA = 45600

# lookup: transcriptional activation domain activity of `WRLYMAFRTLKGKLLPCLIEANGLDLFISTFAAIVERVAEVSNLRLTSKLYQA` 44900

Ok, now `ARGGEKKRREPGRGKRRTGGEERGGRRKTRRANAGETGGERRPRGATPGRKPA` 38500

---

Catalogue of sequences with associated transcriptional activation domain activity
# Tested on: Saccharomyces cerevisiae
# testName: transcriptional activation domain activity (GFP:mCherry ratio, weighted mean of sorted bins, harmonized to initial dataset scale) (arbitrary fluorescence ratio units); higher = stronger transcriptional activation
# testSettings: beta-estradiol 1 µM; induction time 4 h

Recorded transcriptional activation domain activity, per entry:
ETEGAEETSDAEGNESAGKQKKRARKSSHASSRSRTGAQNKKSTVEQKSTFRG = 51600
QLMTGPVLLDREVQTGHSGSLLVLVMSCWSLECFERRQALRKTVLALLGPLRE = 70700
MELFFRLFFWLMSWLLQLTHYFNTFTVLLYIHSLFSGVWFCKVLGFSFFFLYH = 51600
TLHIVLVSYGMYFYLILNFANIAALLSPSWAFLVQVYLTCISDTVVRSVFFSR = 69200

Next:
Quick check: transcriptional activation domain activity of `SKRREIRKTKEARREGSERRDGEADSEEKAREGKGSKRRRRGTGRRAEEAAKG` ? 27400

---

# Test system: Saccharomyces cerevisiae
# testName: transcriptional activation domain activity (GFP:mCherry ratio, weighted mean of sorted bins, harmonized to initial dataset scale) (arbitrary fluorescence ratio units); higher = stronger transcriptional activation
# testSettings: beta-estradiol 1 µM; induction time 4 h
# transcriptional activation domain activity values compiled below
// response body must contain only the number

Some sequences with known transcriptional activation domain activity results, for comparison:
MLSLFSETGCTFLLVGLSIVVGVEKGSFLFYFVYLFTLYLYCGPILLGKLIFM = 49800
KAVFKALPILVVASVGCASTNLLIRTVIIWRKEHLVISVLLLLYVGHWTILFV = 32100
CDSGNEFDGRIGLRVSSIFVILIGSLIGAMLPVVLARSSKMRVPKLAFFVAKY = 36900
MDASSPTSSSAKTPHNKGPRACATCARAKSRCIAGPDGAAGNCERCHRLKKPC = 9040

Which transcriptional activation domain activity is listed for `FFLKVYLLNPLHMTRFADLLYQGAILNRVFQPYESHLQYLLQWMCDYNLYGCA` ? 72900

Entry to check: `KKERKKEEKEEKGEKVKGKGERYVSDQVEEERERRRKRRNAKRQEREEEREKR` 42900
